Measured LC50 by item
# Test system: Heliothis virescens
# assay_summary: Insecticidal activity against Heliothis virescens (tobacco budworm) second-instar larvae infested on compound pre-treated cotton cotyledon disk assessed as insect mortality measured 5 days post compound treatment under green house conditions
# Type: functional
# conditions: Heliothis virescens
reported_endpoint: LC50 (µg/mL)

1) Cn1nc(-c2c(F)cccc2Cl)nc1-c1ccc(-c2ccc(OC(F)(F)F)cc2)s1 : 122
2) Cn1nc(-c2c(F)cccc2Cl)nc1-c1sc(-c2ccc(OC(F)(F)F)cc2)cc1Cl : 62

###

# Test system: Trichoplusia ni
# assay_summary: Insecticidal activity against Trichoplusia ni (cabbage looper) second-instar larvae infested on 400 ppm compound pre-treated cabbage leaf disk assessed as insect mortality measured 5 days post compound treatment under green house conditions
# Assay type: functional
# conditions: at 400 ppm
reported_endpoint: mortality (%)

1) Cn1nc(-c2c(F)cccc2Cl)nc1-c1sc(-c2ccc(Br)cc2)cc1Cl : 90
2) CCOc1ccc(-c2ccc(-c3nc(-c4c(F)cccc4Cl)nn3C)s2)cc1 : 90
3) Cc1cc(-c2ccncc2)sc1-c1nc(-c2c(F)cccc2Cl)nn1C : 90
4) Cc1cc(-c2ccc(F)c(F)c2)sc1-c1nc(-c2c(F)cccc2Cl)nn1C : 90
5) Cc1cc(-c2ccc(OC(F)(F)C(F)C(F)(F)F)cc2)sc1-c1nc(-c2c(F)cccc2Cl)nn1C (stereo not given) : 90
6) Cc1cc(-c2ccc(OC(F)(F)C(F)Cl)cc2)sc1-c1nc(-c2c(F)cccc2Cl)nn1C (stereo not given) : 90
7) Cn1nc(-c2c(F)cccc2Cl)nc1-c1sc(-c2ccc(OC(F)(F)F)cc2)cc1Cl : 90
8) Cc1c(-c2nc(-c3c(F)cccc3Cl)nn2C)sc(-c2ccc(OC(F)(F)F)cc2)c1Br : 90
9) Cn1nc(-c2c(F)cccc2Cl)nc1-c1ccc(-c2ccc(F)cc2)s1 : 80
10) Cc1cc(-c2cccc(OC(F)(F)F)c2)sc1-c1nc(-c2c(F)cccc2Cl)nn1C : 90
11) Cc1c(-c2ccc(C(F)(F)F)cc2)csc1-c1nc(-c2c(F)cccc2Cl)nn1C : 90
12) Cn1nc(-c2c(F)cccc2Cl)nc1-c1sc(-c2ccc(OC(F)(F)F)cc2)c(Br)c1Cl : 70
13) Cc1cc(-c2ccc(OC(C)C)cc2)sc1-c1nc(-c2c(F)cccc2Cl)nn1C : 90
14) Cc1cc(-c2ccc(Cl)c(Cl)c2)sc1-c1nc(-c2c(F)cccc2Cl)nn1C : 60
15) Cc1cc(-c2ccc(OC(F)(F)C(Cl)Cl)cc2)sc1-c1nc(-c2c(F)cccc2Cl)nn1C : 80
16) COCCOc1cccc(-c2cc(C)c(-c3nc(-c4c(F)cccc4Cl)nn3C)s2)c1 : 70
17) Cn1nc(-c2c(F)cccc2Cl)nc1-c1sc(-c2ccc(OC(F)(F)F)cc2)c(Cl)c1Cl : 90
18) Cc1cc(-c2ccc(Cl)cc2)sc1-c1nc(-c2c(F)cccc2Cl)nn1C : 90
19) CCOc1ccc(-c2cc(Cl)c(-c3nc(-c4c(F)cccc4Cl)nn3C)s2)cc1 : 90
20) Cn1nc(-c2c(F)cccc2Cl)nc1-c1ccc(-c2cccc(OC(F)(F)F)c2)s1 : 80

###

# System: Tetranychus urticae
# assay_summary: Insecticidal activity against female Tetranychus urticae (two-spotted spider mite) infested cotton leaf disks followed by 2.5 ppm compound spraying after oviposit assessed as insect mortality measured after 6 days post compound application under green house conditions
# Format: functional
# conditions: foliar, 144 h
reported_endpoint: mortality at 2.5 ppm (%)

1. Cc1cc(-c2ccc(C(F)(F)F)cc2)sc1-c1nc(-c2c(F)cccc2Cl)nn1C : 90
2. CCOc1ccc(-c2cc(Cl)c(-c3nc(-c4c(F)cccc4F)nn3C)s2)cc1 : 80
3. CSc1ccc(-c2cc(Cl)c(-c3nc(-c4c(F)cccc4Cl)nn3C)s2)cc1 : 90
4. Cc1c(-c2ccc(OC(F)(F)F)cc2)sc(-c2nc(-c3c(F)cccc3Cl)nn2C)c1C : 90
5. Cc1ccc(-c2cc(Cl)c(-c3nc(-c4c(F)cccc4F)nn3C)s2)cc1 : 90

###

# System: Spodoptera exigua
# assay_summary: Insecticidal activity against Spodoptera exigua second-instar larvae feeded on compound treated lepidopteran diet assessed as insect mortality measured 5 days post compound treatment under green house conditions
# Format: functional
# conditions: Spodoptera exigua, 120 h
reported_endpoint: LC50 (µg/mL)

1) Cc1cc(-c2ccc(Cl)c(F)c2)sc1-c1nc(-c2c(F)cccc2Cl)nn1C : 65
2) Cc1cc(-c2ccc(OC(F)(F)C(F)Br)cc2)sc1-c1nc(-c2c(F)cccc2Cl)nn1C (centres undefined) : 2.17
3) Cc1c(-c2ccc(OC(F)(F)C(F)Cl)cc2)csc1-c1nc(-c2c(F)cccc2Cl)nn1C (centres undefined) : 1.56
4) Cn1nc(-c2c(F)cccc2Cl)nc1-c1ccc(-c2ccc(OC(F)(F)F)cc2)s1 : 49.9
5) Cc1c(-c2ccc(OC(F)(F)F)cc2)csc1-c1nc(-c2c(F)cccc2Cl)nn1C : 21.9
6) Cc1cc(-c2cccc(OC(F)(F)C(F)Cl)c2)sc1-c1nc(-c2c(F)cccc2Cl)nn1C (centres undefined) : 23.1

###

# System: Spodoptera exigua
# assay_summary: Insecticidal activity against Spodoptera exigua second-instar larvae feeded on 400 ppm compound treated lepidopteran diet assessed as insect mortality measured 5 days post compound treatment under green house conditions
# Format: functional
# conditions: at 400 ppm
As shown below, each of these compounds has a reported mortality value.
reported_endpoint: mortality (%)

1. Cc1cc(-c2cccc(OC(F)(F)C(F)Cl)c2)sc1-c1nc(-c2c(F)cccc2Cl)nn1C (stereo not drawn) : 60
2. Cn1nc(-c2c(F)cccc2Cl)nc1-c1sc(-c2ccc(OC(F)(F)F)cc2)cc1Cl : 70
3. Cc1cc(-c2ccc(OC(C)C)cc2)sc1-c1nc(-c2c(F)cccc2Cl)nn1C : 60
4. Cc1cc(-c2ccc(Cl)cc2)sc1-c1nc(-c2c(F)cccc2Cl)nn1C : 90
5. Cc1cc(-c2ccc(OC(F)(F)C(F)Br)cc2)sc1-c1nc(-c2c(F)cccc2Cl)nn1C (stereo not drawn) : 70
6. COCCOc1cccc(-c2cc(C)c(-c3nc(-c4c(F)cccc4Cl)nn3C)s2)c1 : 80
7. COc1ccc(-c2csc(-c3nc(-c4c(F)cccc4F)nn3C)c2)cc1 : 50
8. Cc1cc(-c2ccc3c(c2)COC3)sc1-c1nc(-c2c(F)cccc2Cl)nn1C : 60
9. Cc1c(-c2ccc(OC(F)(F)C(Cl)Cl)cc2)csc1-c1nc(-c2c(F)cccc2Cl)nn1C : 90
10. Cn1nc(-c2c(F)cccc2F)nc1-c1cc(-c2ccccc2)c(C(F)(F)F)s1 : 50
11. CSc1ccc(-c2cc(Cl)c(-c3nc(-c4c(F)cccc4Cl)nn3C)s2)cc1 : 60
12. Cn1nc(-c2c(F)cccc2Cl)nc1-c1sc(-c2ccc(OC(F)(F)C(F)Br)cc2)cc1Cl (stereo not drawn) : 50
13. Cc1cc(-c2cccc(C(F)(F)F)c2)sc1-c1nc(-c2c(F)cccc2Cl)nn1C : 70
14. Cc1cc(-c2cccc(C(F)(F)F)c2F)sc1-c1nc(-c2c(F)cccc2Cl)nn1C : 60
15. Cn1nc(-c2c(F)cccc2Cl)nc1-c1sc(-c2ccc(Br)cc2)c(Cl)c1Cl : 70
16. Cc1sc(-c2nc(-c3c(F)cccc3Cl)nn2C)c(C)c1-c1ccc(Cl)cc1 : 80
17. Cc1cc(C2=CCC(OC(F)(F)C(F)Cl)CC2)sc1-c1nc(-c2c(F)cccc2Cl)nn1C (stereo not drawn) : 70
18. Cn1nc(-c2c(F)cccc2Cl)nc1-c1sc(-c2ccc(Br)cc2)cc1Cl : 80
19. Cc1cc(-c2ccc3c(c2)OCCO3)sc1-c1nc(-c2c(F)cccc2Cl)nn1C : 80
20. CCOc1cccc(-c2cc(C)c(-c3nc(-c4c(F)cccc4Cl)nn3C)s2)c1 : 80
21. Cc1c(-c2nc(-c3c(F)cccc3Cl)nn2C)sc(Br)c1-c1ccc(OC(F)(F)F)cc1 : 90
22. Cc1cc(-c2ccc(OC(F)(F)C(Cl)Cl)cc2)sc1-c1nc(-c2c(F)cccc2Cl)nn1C : 90
23. Cc1c(-c2ccc(OC(F)(F)C(F)Br)cc2)sc(-c2nc(-c3c(F)cccc3Cl)nn2C)c1C (stereo not drawn) : 70
24. CCOc1ccc(-c2cc(Cl)c(-c3nc(-c4c(F)cccc4F)nn3C)s2)cc1 : 60
25. Cc1c(-c2nc(-c3c(F)cccc3Cl)nn2C)sc(-c2ccc(OC(F)(F)F)cc2)c1Br : 90
26. Cc1cc(-c2ccc3c(c2)OC(F)(F)O3)sc1-c1nc(-c2c(F)cccc2Cl)nn1C : 80
27. Cn1nc(-c2c(F)cccc2Cl)nc1-c1ccc(-c2ccc(OC(F)(F)F)cc2)s1 : 70
28. Cc1cc(-c2ccc(F)cc2)sc1-c1nc(-c2c(F)cccc2Cl)nn1C : 80
29. Cn1nc(-c2c(F)cccc2Cl)nc1-c1sc(-c2ccc(-c3ccccc3)cc2)c(Cl)c1Cl : 50
30. Cc1sc(-c2nc(-c3c(F)cccc3Cl)nn2C)c(C)c1-c1ccc(OC(F)(F)F)cc1 : 90
31. Cn1nc(-c2c(F)cccc2Cl)nc1-c1sc(-c2ccc(C(F)(F)F)cc2)cc1Cl : 60
32. Cn1nc(-c2c(F)cccc2Cl)nc1-c1cc(-c2ccc(Cl)cc2)c(Cl)s1 : 50
